Reference source for all entries: paper PMC12155096

// reported CYP2D6 Efficacy (in parenthesis) for each item listed
# Test Target: UniProt:P10635
# Sequence (P10635 whole entry): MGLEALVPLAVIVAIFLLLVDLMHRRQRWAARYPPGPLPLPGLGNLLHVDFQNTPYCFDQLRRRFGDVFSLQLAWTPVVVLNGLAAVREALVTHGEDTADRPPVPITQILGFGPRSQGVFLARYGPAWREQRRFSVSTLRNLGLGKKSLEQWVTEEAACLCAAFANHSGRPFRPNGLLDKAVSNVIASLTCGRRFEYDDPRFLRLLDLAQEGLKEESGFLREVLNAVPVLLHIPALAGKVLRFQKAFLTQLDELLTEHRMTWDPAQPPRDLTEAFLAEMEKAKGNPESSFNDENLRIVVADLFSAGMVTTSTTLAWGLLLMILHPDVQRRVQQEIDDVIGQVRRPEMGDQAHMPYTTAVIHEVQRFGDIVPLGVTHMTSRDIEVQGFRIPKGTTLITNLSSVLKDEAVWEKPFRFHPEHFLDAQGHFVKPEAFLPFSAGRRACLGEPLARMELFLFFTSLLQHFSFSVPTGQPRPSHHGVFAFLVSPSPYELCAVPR
# Conditions: human

Here is how some molecules turned out for CYP2D6 Efficacy (in parenthesis).
Ask: Suppose we examine the molecule CCCC(Cn1cncn1)c1ccc(Cl)cc1Cl (centres unmarked) ; what CYP2D6 Efficacy (in parenthesis) value has been reported?
Result: 43.51 ± 17.21 (-88 ± 16) %

Ask: Suppose we examine the molecule `CCOP(=S)(OCC)SCn1nnc2ccccc2c1=O` ; what CYP2D6 Efficacy (in parenthesis) value has been reported?
Result: 35.57 ± 0 (-87 ± 6) %

Ask: Suppose we examine the molecule `CCOP(=S)(OCC)Oc1ccc([N+](=O)[O-])cc1` ; what CYP2D6 Efficacy (in parenthesis) value has been reported?
Result: 32.26 ± 3.71 (-69 ± 3) %

Ask: Suppose we examine the molecule CC(C)(C)C(O)(CCc1ccc(Cl)cc1)Cn1cncn1 (centres unmarked) ; what CYP2D6 Efficacy (in parenthesis) value has been reported?
Result: 34.28 ± 2.23 (-82 ± 7) %

With those in mind, consider the next molecule.
Ask: Suppose we examine the molecule `CCOP(=S)(OCC)Oc1ccc2c(C)c(Cl)c(=O)oc2c1` ; what CYP2D6 Efficacy (in parenthesis) value has been reported?
Result: 5.34 ± 0.96 (-101 ± 7) %
